Origin of values: patent US20220195023A1

Target: T1, CSP Protein (Plasmodium falciparum, UniProt Q7K740 19-374)
T1 construct: also called circumsporozoite protein; complete CSP protein
T1 sequence (Q7K740 19-374 limits assumed): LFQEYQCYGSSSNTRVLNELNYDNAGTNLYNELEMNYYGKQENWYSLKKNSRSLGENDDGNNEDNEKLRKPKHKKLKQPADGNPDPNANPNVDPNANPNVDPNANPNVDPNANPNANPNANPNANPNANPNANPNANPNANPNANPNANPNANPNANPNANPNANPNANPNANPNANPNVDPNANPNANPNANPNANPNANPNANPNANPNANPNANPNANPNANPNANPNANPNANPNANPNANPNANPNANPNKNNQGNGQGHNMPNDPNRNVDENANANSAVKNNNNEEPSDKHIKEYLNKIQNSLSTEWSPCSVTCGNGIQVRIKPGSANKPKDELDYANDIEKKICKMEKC
Experiment: SPR, antibody on chip;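 also: antibodies immobilized on a Carterra chip, directly or via anti-human Fc capture, at two spots each, with CSP flowed over at 4-5 concentrations peaking at 0.5-8 µg/mL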
Outcome Measure: Kd (nM)

Binder: AB-007071 (antibody, V domains shown) VH: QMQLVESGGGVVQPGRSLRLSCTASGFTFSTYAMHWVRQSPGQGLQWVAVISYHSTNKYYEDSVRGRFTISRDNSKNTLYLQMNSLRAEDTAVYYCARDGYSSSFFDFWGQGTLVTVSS VL: DIQMTQSPSTLSASVGDRVAITCRASQSISRWLAWYQQQPGKAPKLLMSGASSLESGVPSRFSGSGSGTEFTLTISSLQPDDFATYYCQHYNSYFVTFGQGTKVEIK
Outcome Measure: Kd
Value: 0.0683
--
Binder: AB-007031 (antibody, V domains shown) VH: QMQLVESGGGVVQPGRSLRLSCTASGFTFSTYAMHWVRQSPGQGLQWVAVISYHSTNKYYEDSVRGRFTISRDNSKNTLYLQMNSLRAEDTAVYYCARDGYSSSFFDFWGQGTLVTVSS VL: DIQMTQSPSTLSASVGDRVAITCRASQSISRWLAWYQQQPGKAPKLLISGASVLESGVPSRFSGSGSGTEFTLTISSLQPDDFATYYCQHYNSYFVTFGQGTKVEIK
Outcome Measure: Kd
Value: 0.0496
--
Binder: AB-007036 (antibody, V domains shown) VH: QMQLVESGGGVVQPGRSLRLSCTASGFTFSTYAMHWVRQSPGQGLQWVAVISYDSTNKYYEDSVRGRFTISRDNSKNTLYLQMNSLRAEDTAVYYCARDGYSSSFFDFWGQGTLVTVSS VL: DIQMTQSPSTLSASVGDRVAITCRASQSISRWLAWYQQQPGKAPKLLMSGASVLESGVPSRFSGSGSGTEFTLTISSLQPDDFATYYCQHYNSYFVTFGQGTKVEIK
Outcome Measure: Kd
Value: 0.0967
--
Binder: AB-007039 (antibody, V domains shown) VH: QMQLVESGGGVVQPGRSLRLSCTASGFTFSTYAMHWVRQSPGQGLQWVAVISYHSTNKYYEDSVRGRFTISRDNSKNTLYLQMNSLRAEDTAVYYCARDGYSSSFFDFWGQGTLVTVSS VL: DIQMTQSPSTLSASVGDRVAITCRASQSISRWLAWYQQQPGKAPKLLMSGASVLESGVPSRFSGSGSGTEFTLTISSLQPDDFATYYCQHYNSYSVTFGQGTKVEIK
Outcome Measure: Kd
Value: 0.106
--
Binder: AB-007060 (antibody, V domains shown) VH: QMQLVESGGGVVQPGRSLRLSCTASGFTFSTYAMHWVRQSPGQGLQWVAVISYHSTNKYYEDSVRGRFTISRDNSKNTLYLQMNSLRAEDTAVYYCARDGYSSSYFDFWGQGTLVTVSS VL: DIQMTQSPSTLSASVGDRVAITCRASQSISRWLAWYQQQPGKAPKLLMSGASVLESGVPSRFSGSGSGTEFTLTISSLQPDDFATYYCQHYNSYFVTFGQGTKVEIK
Outcome Measure: Kd
Value: 0.199
